Value source: patent US20250011456A1

test-system: T1, recombinant human CD14 (B294801, histidine tagged) (Homo sapiens, UniProt P08571)
T1 construct: His; purchased Shanghai BaiYing Biotechnology Co., Ltd B294801 (Batch number 20200518A22)
T1 sequence (P08571 20-345): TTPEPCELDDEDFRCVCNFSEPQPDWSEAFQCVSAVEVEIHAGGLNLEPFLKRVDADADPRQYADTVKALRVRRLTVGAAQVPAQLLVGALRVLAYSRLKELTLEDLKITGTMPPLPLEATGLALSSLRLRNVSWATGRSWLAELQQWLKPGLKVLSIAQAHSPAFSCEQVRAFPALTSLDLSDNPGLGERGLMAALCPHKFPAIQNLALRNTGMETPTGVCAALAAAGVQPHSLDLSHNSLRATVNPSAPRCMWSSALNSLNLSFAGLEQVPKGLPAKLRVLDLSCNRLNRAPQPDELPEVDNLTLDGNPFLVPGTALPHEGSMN
protocol-summary: Biacore 8K kinetic and affinity test of humanized antibodies (Example 8)
Format: binding
run-conditions: Biacore 8K, KD=koff/kon, analyte B294801 0.78125-25 nM, capture 1 μg/mL
endpoint-label: pKd
Numbers only, as −log10 of the molar value.

{"columns": ["molecule", "pKd"],
 "data": [
  ["D6DD3D006: humanized anti-CD14 antibody; VH SEQ ID NO: 21, VL SEQ ID NO: 23 (antibody, V domains shown) VH: QVQLQESGPGLVKPSQTLSLTCTVSGYSITSDSAWNWIRQPPGKGLEWIGYISYSGSTSYNPSLKSRVTISRDTSKNQFSLKLSSVTAADTAVYYCVRGLRFAYWGQGTLVTVSS VL: EIVLTQSPATLSLSPGERATLSCRASESVDSYVNSFLHWYQQKPGQAPRLLIYRASNLQSGIPARFSGSGSRTDFTLTISSLEPEDVAVYYCQQSNEDPYTFGQGTKLEIK", 9.22],
  ["D6DD3D005: humanized anti-CD14 antibody; VH SEQ ID NO: 17, VL SEQ ID NO: 19 (antibody, V domains shown) VH: QVQLQESGPGLVKPSETLSLTCTVSGYSITSDSAWNWIRQPPGKGLEWIGYISYSGSTSYNPSLKSRVTISRDTSKNQFSLKLSSVTAADTAVYYCVRGLRFAYWGQGTLVTVSS VL: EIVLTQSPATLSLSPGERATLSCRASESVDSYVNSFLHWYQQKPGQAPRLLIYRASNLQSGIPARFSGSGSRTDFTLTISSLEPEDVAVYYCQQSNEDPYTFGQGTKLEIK", 9.28]
]}

Quick batch: pKd for everything below.
1. D6DD3D009: humanized anti-CD14 antibody; VH SEQ ID NO: 33, VL SEQ ID NO: 35 (antibody, V domains shown) VH: QLQLQESGPGLVKPSETLSLTCTVSGGSISSDSAWNWIRQPPGKGLEWIGYISYSGSTSYNPSLKSRVTISRDTSKNQFSLKLSSVTAADTAVYYCVRGLRFAYWGQGTLVTVSS VL: DIVLTQSPDSLAVSLGERATINCRASESVDSYVNSFLHWYQQKPGQPPKLLIYRASNLQSGVPDRFSGSGSRTDFTLTISSLQAEDVAVYYCQQSNEDPYTFGQGTKLEIK
2. D6DD3D011: humanized anti-CD14 antibody; VH SEQ ID NO: 41, VL SEQ ID NO: 43 (antibody, V domains shown) VH: QVQLQESGPGLVKPSQTLSLTCTVSGYSITSDSAWNWIRQPPGKGLEWIGYISYSGSTSYNPSLKSRVTISRDTSKNQFSLKLSSVTAADTAVYYCVRGLRFAYWGQGTLVTVSS VL: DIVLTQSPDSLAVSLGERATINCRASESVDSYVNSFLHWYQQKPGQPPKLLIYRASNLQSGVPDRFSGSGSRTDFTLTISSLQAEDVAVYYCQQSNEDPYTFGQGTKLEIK

[reply]
8.72
9.19
